- targetDesc: CCR2 (Homo sapiens)
- Sequence (P41597 whole entry, species assumed): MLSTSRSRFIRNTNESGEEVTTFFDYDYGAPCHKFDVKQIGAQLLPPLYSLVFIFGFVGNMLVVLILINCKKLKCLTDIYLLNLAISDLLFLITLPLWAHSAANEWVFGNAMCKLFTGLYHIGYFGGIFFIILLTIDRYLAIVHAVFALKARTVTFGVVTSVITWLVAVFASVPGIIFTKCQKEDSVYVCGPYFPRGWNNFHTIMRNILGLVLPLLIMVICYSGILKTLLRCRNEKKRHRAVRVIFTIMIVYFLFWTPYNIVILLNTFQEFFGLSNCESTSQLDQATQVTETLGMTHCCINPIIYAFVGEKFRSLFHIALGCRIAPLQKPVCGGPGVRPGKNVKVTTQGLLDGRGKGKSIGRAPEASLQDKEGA
- testDescription: CCR2 FLIPR Calcium assay (intracellular calcium signaling)
- testSettings: HEK293 host cells, clone C7; agonist MCP-1; Fluo-4 calcium signal
reportedEndpoint: IC50 (nM)

1: CCCCOCCOc1ccc(-c2ccc3c(c2)C=C(C(=O)Nc2ccc([S+]([O-])Cc4cnc(C)cc4CC)cc2)CCCN3CC2CCCO2)cc1 (single isomer, unassigned) [WX015]
2: CCCCOCCOc1ccc(-c2ccc3c(c2)/C=C(/C(=O)Nc2ccc([S@+]([O-])Cc4cnc(C)cc4CC)cc2)CCCN3C[C@H]2CCCO2)cc1 (single isomer, unassigned) [WX016]
QUERY: Could you please tell me which of these two has the higher IC50: 1 or 2 ? Could you answer with the label of the item you picked?
RESULT: 1
(1: 21.4 nM, 2: 1.75 nM)

I: CCCCOCCOc1ccc(-c2ccc3c(c2)C=C(C(=O)Nc2ccc([S+]([O-])Cc4cnccc4CC)cc2)CCCN3CC2COCCO2)cc1 (single isomer, unassigned) [WX003]
II: CCCCOCCOc1ccc(-c2ccc3c(c2)C=C(C(=O)Nc2ccc([S+]([O-])Cc4cnc(C)cc4CC)cc2)CCCN3CC2CCCO2)cc1 (single isomer, unassigned) [WX014]
QUERY: Pick one, I or II : lowest reported IC50. Refer to your chosen entry by its label in the reply.
RESULT: II
